# test.system: Steroidogenic factor 1 (Homo sapiens)
# assay.explanation: SF1 (NR5A1) inverse agonists, counter-screen for LRH-1 inverse agonist project, cell-based, luminescence, high throughput (AID 651614);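 also: cells cotransfected with StAR promoter reporter and SF1 expression vector; 0% = vehicle on cells with receptor and 100% = vehicle on cells lacking receptor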
# stated.conditions: cell-based SF1 luciferase reporter, at 3.6 µM, stronger effect = higher value
# cutoff 40% applies to inhibition; >= gives t, < gives f

molecule: Cc1ccnc2nc(C(=O)OCC(=O)Nc3ccc([N+](=O)[O-])cc3Br)nn12
test.system: Steroidogenic factor 1 (Homo sapiens)
label.class: f
--
molecule: COc1ccc(/C=N/NC(=O)c2[nH]c3ccc(Br)cc3c2-c2ccccc2)cc1
test.system: Steroidogenic factor 1 (Homo sapiens)
label.class: t
--
molecule: COc1cc(SC)ccc1C(=O)Nc1nc2ccccc2[nH]1
test.system: Steroidogenic factor 1 (Homo sapiens)
label.class: t
--
molecule: CC1Cc2ccccc2N1c1ncnc(N)c1[N+](=O)[O-] (stereo unspecified)
test.system: Steroidogenic factor 1 (Homo sapiens)
label.class: t
--
molecule: Cc1ccccc1-c1nnc(SCC(=O)Nc2cccc(C)c2C)o1
test.system: Steroidogenic factor 1 (Homo sapiens)
label.class: f
--
molecule: CC(=O)Nc1ccc(NC(=O)CSc2ccc(-c3ccco3)nn2)cc1
test.system: Steroidogenic factor 1 (Homo sapiens)
label.class: t

====

# System: transactivating tegument protein VP16 (Human herpesvirus 1)
# assay.explanation: VP16 transactivation reporter inhibitors, counter-screen for SRC2 inhibitor project, cell-based, luminescence, single concentration (AID 652007)
# stated.conditions: cell-based VP16 transactivation luciferase reporter, at 8.9 µM, stronger effect = higher value

compound: N#Cc1ccc(-c2ccc(OCC(=O)Nc3cccnc3)cc2)cc1
inhibition / %: -9.35

compound: Cc1ccc(S(=O)(=O)C(NC(=O)c2ccccc2)=C(Cl)Cl)cc1
inhibition / %: 14.1

compound: COc1cccc2c1C(CO)N1C(C#N)C3CC(C(=O)O)C(C1C2)N3C (stereo unspecified)
inhibition / %: 40.5

compound: Cc1nc([N+](=O)[O-])c(Br)n1Cc1ccc(Cl)c(Cl)c1
inhibition / %: 10.6

compound: c1csc(CNc2ncnc3ccc(-c4ccoc4)cc23)c1
inhibition / %: 5.65

compound: COc1ccccc1C(=O)NCc1ccc(-c2nc3ccccc3s2)cc1
inhibition / %: -14

compound: COc1ccc(-n2ncc3c(N(C)C4CCCCC4)ncnc32)cc1
inhibition / %: 42.7

compound: Cc1c(C(C)NC(=O)c2cc(COc3cccc4cnccc34)on2)cnn1C (stereo unspecified)
inhibition / %: 7.45

compound: CCCc1ccc(C(=O)O/N=C(\N)c2ccccn2)cc1
inhibition / %: -18.6

compound: O=[N+]([O-])c1ccc(Sc2nccn2Cc2ccccc2)c([N+](=O)[O-])c1
inhibition / %: 4.42

compound: CCOc1cc(C(=O)N2CCc3cc(OC)c(OC)cc3C2)ccc1OC(F)F
inhibition / %: -28

====

# test.system: Nuclear receptor coactivator 1 (Homo sapiens)
# assay.explanation: SRC1 coactivator transcriptional activity inhibitors, confirmation, cell-based, luminescence, quadruplicate (AID 588820);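 also: 0% = DMSO wells and 100% = gossypol 36 µM treated wells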
# stated.conditions: HEK293 GAL4-SRC1 luciferase reporter, at 3.6 µM, stronger effect = higher value
# cutoff 30% applies to inhibition; >= gives 1.0, < gives 0.0

molecule: O=C(O)CNC(=O)c1cccc(C(F)(F)F)c1
test.system: Nuclear receptor coactivator 1 (Homo sapiens)
label.class: 0.0
//
molecule: Nc1nc(Cl)nc2ccc(Br)cc12
test.system: Nuclear receptor coactivator 1 (Homo sapiens)
label.class: 0.0
//
molecule: Cc1nn(-c2nc3ccccc3[nH]2)c(=O)c2ccccc12
test.system: Nuclear receptor coactivator 1 (Homo sapiens)
label.class: 1.0
//
molecule: N#CC(C#N)c1ccnc2ccccc12
test.system: Nuclear receptor coactivator 1 (Homo sapiens)
label.class: 1.0
//
molecule: COc1cccc(/C=N/Nc2ccc(C(=O)O)cc2)c1O
test.system: Nuclear receptor coactivator 1 (Homo sapiens)
label.class: 0.0
//
molecule: CN(Cc1ccccc1)C1=CC(=[N+]2CCCCC2)CC(C)(C)C1
test.system: Nuclear receptor coactivator 1 (Homo sapiens)
label.class: 1.0
//
molecule: Cc1c([N+](=O)[O-])c2ccc(O)cc2n1-c1ccccc1
test.system: Nuclear receptor coactivator 1 (Homo sapiens)
label.class: 1.0
//
molecule: COc1ccc(Cc2noc(CN3CCN(c4ccc(Cl)cn4)CC3)n2)cc1OC
test.system: Nuclear receptor coactivator 1 (Homo sapiens)
label.class: 0.0
//
molecule: Cc1cc(C)nc(/N=C(\N)Nc2ccc(C(C)C)cc2)n1
test.system: Nuclear receptor coactivator 1 (Homo sapiens)
label.class: 0.0
//
molecule: Cc1cc(C)c2nc(NNC(=O)c3ccc(S(=O)(=O)N4CC(C)CC(C)C4)cc3)sc2c1 (configuration not stated)
test.system: Nuclear receptor coactivator 1 (Homo sapiens)
label.class: 1.0
//
molecule: Cc1c(O)ccc(/C(Cc2ccc3ccccc3n2)=N\N)c1O
test.system: Nuclear receptor coactivator 1 (Homo sapiens)
label.class: 0.0

====

# Test system: transactivating tegument protein VP16 (Human herpesvirus 1)
# assay.explanation: VP16 transactivation reporter inhibitors, counter-screen for SRC2 inhibitor project, cell-based, luminescence, single concentration (AID 652007)
# stated.conditions: cell-based VP16 transactivation luciferase reporter, at 8.9 µM, stronger effect = higher value
Listing of entries alongside the reported inhibition.

compound: CC1=C(C(=O)N2CCOCC2)CC(CC(=O)NCCCCc2ccccc2)C(=O)N1Cc1ccc(C(C)(C)C)cc1 (stereo not given)
test.system: transactivating tegument protein VP16 (Human herpesvirus 1)
inhibition, %: 12.6

compound: COc1ccc(C)cc1Nc1n[n+](-c2ccccc2)c(-c2c(Cl)cccc2Cl)s1
test.system: transactivating tegument protein VP16 (Human herpesvirus 1)
inhibition, %: 19.4

compound: O=C(COC(=O)c1cc(S(=O)(=O)N2CCOCC2)ccc1F)NCc1ccc2c(c1)OCO2
test.system: transactivating tegument protein VP16 (Human herpesvirus 1)
inhibition, %: -10.1

compound: Cc1nn(C(C)(C)C)c(C)c1/C=N/OC(=O)Nc1ccc(Cl)c(Cl)c1
test.system: transactivating tegument protein VP16 (Human herpesvirus 1)
inhibition, %: 63

compound: O=C1NC(=S)N/C1=C\c1cccnc1
test.system: transactivating tegument protein VP16 (Human herpesvirus 1)
inhibition, %: 0.14

compound: CC(=O)Nc1ccc(S(=O)(=O)Nc2ccc(N3CCCCC3)cc2)cc1
test.system: transactivating tegument protein VP16 (Human herpesvirus 1)
inhibition, %: -15.4

compound: CCOC(=O)C1=CCN(S(=O)(=O)c2cccc(Cl)c2)C1c1ccc(Cl)c(Cl)c1 (stereo not given)
test.system: transactivating tegument protein VP16 (Human herpesvirus 1)
inhibition, %: -7.88

compound: COc1ccc(C(C(=O)NC2CCCC2)n2c(CSCCOc3ccccc3)nc3ccccc32)cc1 (stereo not given)
test.system: transactivating tegument protein VP16 (Human herpesvirus 1)
inhibition, %: 43.5

compound: CC(=O)Nc1ccc(NC(=O)c2ccc(-c3ccnn3C)c3ccoc23)cc1
test.system: transactivating tegument protein VP16 (Human herpesvirus 1)
inhibition, %: -6.57

compound: CCOC(=O)CCC(=O)c1c(C)oc2ccc(OC)cc12
test.system: transactivating tegument protein VP16 (Human herpesvirus 1)
inhibition, %: 6.24

====

# assay.explanation: StAR promoter reporter inhibitors, counter-screen for LRH-1 inverse agonist project, cell-based, luminescence, high throughput (AID 651611)
# stated.conditions: StAR promoter luciferase reporter counterscreen, at 3.6 µM
Calls of active or inactive are those of the source. No stated cut-off is given here; in the data, active means inhibition above about 28%; inactive means the rest.
Outcome codes: active, inactive

compound: O=C(Nc1ccc(S(=O)(=O)N2CCOCC2)cc1)c1cccc([N+](=O)[O-])c1
label.class: inactive
--
compound: CCN(CC)c1ccc(C(=C2C=CC(=[N+](CC)CC)C=C2)c2ccc(N(CC)CC)cc2)cc1
label.class: active
--
compound: CC(C)CCCCCCCCCCCCC(=O)NCC(=O)NC1C(C)OC(Nc2ncnc3nc[nH]c23)C(O)C1O (stereo not given)
label.class: active
--
compound: CCCc1cc(=O)n2nc(N3CCC(C(=O)N4CCN(c5ccc(OC)cc5)CC4)CC3)sc2n1
label.class: inactive
--
compound: Nc1ccccc1Nc1ccncc1[N+](=O)[O-]
label.class: inactive

====

# assay.explanation: VP16 transactivation reporter inhibitors, counter-screen for LRH-1 inverse agonist project, cell-based, luminescence, high throughput (AID 651615)
# stated.conditions: Gal4-VP16 luciferase reporter cells, at 3.6 µM
Activity calls are given as the source filed them. Cut-off read from the data, not from the text of the source: active = inhibition above about 33%; inactive = the rest.
Outcome codes: label 1 = active, label 0 = inactive

compound: CCCCSc1nc(SCC(=O)NCc2ccco2)c2c3c(sc2n1)COC(C)(CC)C3 (stereo unspecified)
label.class: label 0

compound: COc1ccc2[nH]c3c(C)c4cc[n+](C)cc4c(C)c3c2c1
label.class: label 1

compound: Clc1ccc(-c2nnc(CSc3nnc(-c4cccs4)n3Cc3ccccc3)o2)cc1
label.class: label 1

compound: O=C(/C=C/Nc1ccccc1Br)c1ccccn1
label.class: label 1

compound: Nc1ccc(C(=O)NN2C(=O)[C@H](Cl)C2c2ccc(Cl)cc2)cc1 (stereo partly specified)
label.class: label 0

compound: O=C(Nc1ccccc1)c1oc2ccccc2c1NC(=O)C1CC1
label.class: label 0

compound: Cc1ccc(-n2nc(C)c(NC(=O)CCl)c2C)cc1
label.class: label 0

compound: COc1ccccc1N1CCN(C(=O)CSc2nc3ccccc3o2)CC1
label.class: label 0

compound: Cc1cccc2sc(NNC(=O)c3ccc(S(=O)(=O)N4CC(C)CC(C)C4)cc3)nc12 (stereo unspecified)
label.class: label 1

compound: Cc1cc([N+](=O)[O-])ccc1NC(=O)CSc1nnc(C)n1C
label.class: label 0

compound: COc1ccc(-c2oc3ccc(N4CCOCC4)cc3c2C#CCO)cc1
label.class: label 1
